- Tested on: VMRC-RCZ (Kidney Carcinoma)
- assay: combination Emax (second highest fraction inhibited in the dose matrix, 72 h); higher = more inhibition; extreme values may be limits of the assay
Please respond with reported combination Emax for every item in the list.

compound	target-entity	combination Emax
CCN(CCO)CCCOc1ccc2c(Nc3cc(CC(=O)Nc4cccc(F)c4)[nH]n3)ncnc2c1 [AZD2811] + C=CCn1c(=O)c2cnc(Nc3ccc(N4CCN(C)CC4)cc3)nc2n1-c1cccc(C(C)(C)O)n1 [AZD1775] (first compound max 1 µM, partner max 1 µM)	VMRC-RCZ (Kidney Carcinoma)	0.217

Please supply combination Emax for each of the following items, keeping them in order.
1. CN(CCO)CC[C@H](CSc1ccccc1)Nc1ccc(S(=O)(=O)NC(=O)c2ccc(N3CCC([C@@H](O)c4ccccc4-c4ccc(Cl)cc4)CC3)cc2)cc1S(=O)(=O)C(F)(F)F [AZD4320] + C[C@@H]1COCCN1C2=NC(=NC(=C2)C3(CC3)[S@](=N)(=O)C)C4=C5C=CNC5=NC=C4 [AZD6738] (first compound max 1 µM, 7x7, partner max 10 µM)
2. CN(C)CCCOc1ccc(-c2ccc3ncc4c(c3c2)n(C2CCOCC2)c(=O)n4C)cn1 [AZD0156] + C=CCn1c(=O)c2cnc(Nc3ccc(N4CCN(C)CC4)cc3)nc2n1-c1cccc(C(C)(C)O)n1 [AZD1775] (first compound max 1 µM, partner max 1 µM)

0.566
0.206

----------
- Test system: MOLM-13 (Acute Myeloid Leukemia)
- assay: Bliss excess, mean over the matrix (fraction); higher = more synergy
measured-property: Bliss excess
Give bare numbers.

compound	measured-property	recorded-result
Cc1cc2ncnn2cc1Nc1ncc2c(n1)n(C1CCOCC1)c(=O)n2C [AZD7648] + CN(C)CCCOc1ccc(-c2ccc3ncc4c(c3c2)n(C2CCOCC2)c(=O)n4C)cn1 [AZD0156] (first compound max 10 µM, 7x7, partner max 1 µM)	Bliss excess	0.0085

compound CN(CCO)CC[C@H](CSc1ccccc1)Nc1ccc(S(=O)(=O)NC(=O)c2ccc(N3CCC([C@@H](O)c4ccccc4-c4ccc(Cl)cc4)CC3)cc2)cc1S(=O)(=O)C(F)(F)F [AZD4320] + Cn1cnc2c(F)c(Nc3ccc(Br)cc3Cl)c(C(=O)NOCCO)cc21 [Selumetinib] (first compound max 1 µM, 7x7, partner max 3 µM) , Bliss excess observed: 0.0296

----------
Provide the reported combination Emax of each item.
- System: KYSE-270 (Esophageal Squamous Cell Carcinoma)
- assay: combination Emax (second highest fraction inhibited in the dose matrix, 72 h); higher = more inhibition; extreme values may be limits of the assay
Answers are plain numbers.

Consider the following illustrative entries.
compound	combination Emax
CS(=O)(=O)CCNCc1ccc(-c2ccc3ncnc(Nc4ccc(OCc5cccc(F)c5)c(Cl)c4)c3c2)o1 [Lapatinib] + Cn1cnc2c(F)c(Nc3ccc(Br)cc3Cl)c(C(=O)NOCCO)cc21 [Selumetinib] (first compound max 10 µM, 7x7, partner max 10 µM)	0.542
Cc1c2c(nn1C)CSCc1cc(n(C)n1)CSc1cc(c3ccccc3c1)OCCCc1c(C(=O)O)n(C)c3c-2c(Cl)ccc13 [AZD5991] + CN(C)CCCOc1ccc(-c2ccc3ncc4c(c3c2)n(C2CCOCC2)c(=O)n4C)cn1 [AZD0156] (first compound max 1 µM, 7x7, partner max 1 µM)	0.542
CC(=O)c1c(C)c2cnc(Nc3ccc(N4CCNCC4)cn3)nc2n(C2CCCC2)c1=O [Palbociclib] + CC1(C)CCC(CN2CCN(c3ccc(C(=O)NS(=O)(=O)c4ccc(NCC5CCOCC5)c([N+](=O)[O-])c4)c(Oc4cnc5[nH]ccc5c4)c3)CC2)=C(c2ccc(Cl)cc2)C1 [Venetoclax] (first compound max 10 µM, 7x7, partner max 1 µM)	0.125

According to the records, this compound C=CCn1c(=O)c2cnc(Nc3ccc(N4CCN(C)CC4)cc3)nc2n1-c1cccc(C(C)(C)O)n1 [AZD1775] + C1CN(CCC1(C(=O)N[C@@H](CCO)C2=CC=C(C=C2)Cl)N)C3=NC=NC4=C3C=CN4 [Capivasertib] (first compound max 3 µM, partner max 3 µM) displays combination Emax of 0.85

----------
- Tested on: NCI-H929 (Plasma Cell Myeloma)
- assay: combination Emax (second highest fraction inhibited in the dose matrix, 72 h); higher = more inhibition; extreme values may be limits of the assay
Kindly state combination Emax for each of the entries shown.

Hi, could you look up combination Emax for each item in my list?
1. CC1(C)CCC(CN2CCN(c3ccc(C(=O)NS(=O)(=O)c4ccc(NCC5CCOCC5)c([N+](=O)[O-])c4)c(Oc4cnc5[nH]ccc5c4)c3)CC2)=C(c2ccc(Cl)cc2)C1 [Venetoclax] + C1CN(CCC1(C(=O)N[C@@H](CCO)C2=CC=C(C=C2)Cl)N)C3=NC=NC4=C3C=CN4 [Capivasertib] (first compound max 1 µM, 7x7, partner max 3 µM)
2. Cc1c2c(nn1C)CSCc1cc(n(C)n1)CSc1cc(c3ccccc3c1)OCCCc1c(C(=O)O)n(C)c3c-2c(Cl)ccc13 [AZD5991] + CCN(CCO)CCCOc1ccc2c(Nc3cc(CC(=O)Nc4cccc(F)c4)[nH]n3)ncnc2c1 [AZD2811] (first compound max 1 µM, 7x7, partner max 1 µM)
3. Cc1c2c(nn1C)CSCc1cc(n(C)n1)CSc1cc(c3ccccc3c1)OCCCc1c(C(=O)O)n(C)c3c-2c(Cl)ccc13 [AZD5991] + Cc1cc2ncnn2cc1Nc1ncc2c(n1)n(C1CCOCC1)c(=O)n2C [AZD7648] (first compound max 1 µM, 7x7, partner max 10 µM)
4. COc1nnc2ccc(N3CCC(c4ccc(OCCN5CCN(C)C(=O)[C@H]5C)cc4)CC3)nn12 [AZD5153] + C=CCn1c(=O)c2cnc(Nc3ccc(N4CCN(C)CC4)cc3)nc2n1-c1cccc(C(C)(C)O)n1 [AZD1775] (first compound max 1 µM, partner max 1 µM)
5. CN(CCO)CC[C@H](CSc1ccccc1)Nc1ccc(S(=O)(=O)NC(=O)c2ccc(N3CCC([C@@H](O)c4ccccc4-c4ccc(Cl)cc4)CC3)cc2)cc1S(=O)(=O)C(F)(F)F [AZD4320] + C[C@@H]1COCCN1C2=NC(=NC(=C2)C3(CC3)[S@](=N)(=O)C)C4=C5C=CNC5=NC=C4 [AZD6738] (first compound max 1 µM, 7x7, partner max 10 µM)

1: 0.997; 2: 1; 3: 1; 4: 0.908; 5: 0.739

----------
For each entry below, report its combination Emax value.
- Test system: NCI-H3122 (Lung Adenocarcinoma)
- assay: combination Emax (second highest fraction inhibited in the dose matrix, 72 h); higher = more inhibition; extreme values may be limits of the assay

See these solved cases before continuing.
molecule	combination Emax
CC1(C)CCC(CN2CCN(c3ccc(C(=O)NS(=O)(=O)c4ccc(NCC5CCOCC5)c([N+](=O)[O-])c4)c(Oc4cnc5[nH]ccc5c4)c3)CC2)=C(c2ccc(Cl)cc2)C1 [Venetoclax] + C[C@@H](Nc1cc(F)cc(F)c1)c1cc(C(=O)N(C)C)cc2c(=O)cc(N3CCOCC3)oc12 [AZD8186] (first compound max 1 µM, 7x7, partner max 3 µM)	0.134
Cn1cnc2c(F)c(Nc3ccc(Br)cc3Cl)c(C(=O)NOCCO)cc21 [Selumetinib] + CC(C)n1c(=O)n(C)c2cnc3cc(F)c(-c4ccc(OCCCN5CCCCC5)nc4)cc3c21 [AZD1390] (first compound max 10 µM, 7x7, partner max 0.3 µM)	0.552

For the molecule CN(CCO)CC[C@H](CSc1ccccc1)Nc1ccc(S(=O)(=O)NC(=O)c2ccc(N3CCC([C@@H](O)c4ccccc4-c4ccc(Cl)cc4)CC3)cc2)cc1S(=O)(=O)C(F)(F)F [AZD4320] + Cn1cnc2c(F)c(Nc3ccc(Br)cc3Cl)c(C(=O)NOCCO)cc21 [Selumetinib] (first compound max 1 µM, 7x7, partner max 3 µM) , the measured combination Emax on NCI-H3122 (Lung Adenocarcinoma) was 0.538

----------
- System: SK-GT-2 (Gastric Carcinoma)
- assay: Bliss excess, mean over the matrix (fraction); higher = more synergy
measured-property: Bliss excess
Give bare numbers.

molecule	Bliss excess
CC(=O)c1c(C)c2cnc(Nc3ccc(N4CCNCC4)cn3)nc2n(C2CCCC2)c1=O [Palbociclib] + CN(CC[C@H](CSC1=CC=CC=C1)NC2=C(C=C(C=C2)S(=O)(=O)NC(=O)C3=CC=C(C=C3)N4CCC(CC4)[C@H](C5=CC=CC=C5C6=CC=C(C=C6)Cl)O)S(=O)(=O)C(F)(F)F)CCO [AZD4320] (first compound max 10 µM, 7x7, partner max 1 µM)	-0.0151

Next molecule, Bliss excess to be filled in.
The reported value for Cc1cc2ncnn2cc1Nc1ncc2c(n1)n(C1CCOCC1)c(=O)n2C [AZD7648] + C=CCn1c(=O)c2cnc(Nc3ccc(N4CCN(C)CC4)cc3)nc2n1-c1cccc(C(C)(C)O)n1 [AZD1775] (first compound max 10 µM, partner max 1 µM) in terms of Bliss excess is -0.047
